- EXPERIMENT SUMMARY: Plasma pharmacokinetics after single i.p. injection
- RECORDED CONDITIONS: female, CD1, mouse, intraperitoneal, 100 mg/kg
MEASURED PROPERTY: concentration at 72 h (nM)
// note: answer is a bare numeric in nM

Problem: Would you mind telling me what concentration at 72 h value was observed for CCc1cc2c(cc1Cl)nc1c(=O)[nH]c(=O)nc-1n2CCOCC(C)C ?
Result: 2050
